Tested on: HL60 cells
methodNotes: Anti-proliferation ability of compounds on HL60 cells (CellTiter-Glo)
Type: cell-based
conditionLabel: Homo sapiens, HL-60, 72 h, incubated 3 days, CTG luminescence, IC50 calculated by XLfit
property: pIC50
pIC50 here: minus log base 10 of the concentration, concentration in moles per litre.

molecule	targetEntity	valueReported
O=C(Cn1c2ccccc2c2cccnc21)NCc1ccc(CNC(=O)c2ccc3c(c2)CN(C2CCC(=O)NC2=O)C3=O)c(OCCO)c1 (stereo not shown)	HL60 cells	8.66
O=C1CCC(N2Cc3cc(C(=O)NCc4ccc(CN(CCc5ccccc5)C(=O)NCCO)cc4)ccc3C2=O)C(=O)N1 (stereo not shown)	HL60 cells	7.62
O=C1CCC(N2Cc3cc(CNC(=O)c4ccc(CN5CCN(c6ccc(O)c(Cl)c6)CC5)cc4)ccc3C2=O)C(=O)N1 (stereo not shown)	HL60 cells	7.98

State its pIC50: NCc1cc(-c2cccc3cccnc23)cnc1N1CCC(CC(=O)Nc2ccc3c(c2)CN(C2CCC(=O)NC2=O)C3=O)CC1 (stereo not shown)
9.24
